Target: CBP bromodomain (Homo sapiens, UniProt Q92793)
Sequence (Q92793 1085-1192 limits assumed): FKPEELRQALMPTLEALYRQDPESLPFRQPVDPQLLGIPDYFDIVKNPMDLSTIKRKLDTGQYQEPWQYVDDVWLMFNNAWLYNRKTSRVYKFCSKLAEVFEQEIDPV
Experiment: AlphaScreen peptide displacement assay, CBP
Format: binding
VALUE_KIND: IC50

Q: Quickly give me recorded IC50 for Cc1noc(C)c1-c1ccc2c(c1)C(OCc1ccccc1)CC2 (stereo not shown) [Compound 9]
Ans: > 10 µM
